assay: inhibitors of HIV Env-driven cell fusion, dose response, cherry-pick (AID 652057); type: functional, cell-based
Active and inactive are the calls of the source. How the calls were made is not given here.
Measured quantity: AC50

Compound | Reading
COc1ccc2sc(N(CCCN(C)C)C(=O)c3ccc(S(=O)(=O)N4CCc5ccccc5C4)cc3)nc2c1 | 6440 nM (active)
COC(=O)C1=C(C)N(Cc2ccc(Cl)cc2)C(=S)NC1c1ccc(OC)cc1 (centres undefined) | 3250 nM (active)
C(=C\c1ccccc1)/CN1CCN(c2ncnc3c2oc2ccccc23)CC1 | 1980 nM (active)
COc1ccc(CC(N)c2csc(NC(=O)Nc3ccccc3Oc3ccccc3)n2)cc1 (centres undefined) | 1170 nM (active)
